These entries and their values trace back to patent US5326902A.

Target: UniProt P18054
Sequence (P18054 1-663): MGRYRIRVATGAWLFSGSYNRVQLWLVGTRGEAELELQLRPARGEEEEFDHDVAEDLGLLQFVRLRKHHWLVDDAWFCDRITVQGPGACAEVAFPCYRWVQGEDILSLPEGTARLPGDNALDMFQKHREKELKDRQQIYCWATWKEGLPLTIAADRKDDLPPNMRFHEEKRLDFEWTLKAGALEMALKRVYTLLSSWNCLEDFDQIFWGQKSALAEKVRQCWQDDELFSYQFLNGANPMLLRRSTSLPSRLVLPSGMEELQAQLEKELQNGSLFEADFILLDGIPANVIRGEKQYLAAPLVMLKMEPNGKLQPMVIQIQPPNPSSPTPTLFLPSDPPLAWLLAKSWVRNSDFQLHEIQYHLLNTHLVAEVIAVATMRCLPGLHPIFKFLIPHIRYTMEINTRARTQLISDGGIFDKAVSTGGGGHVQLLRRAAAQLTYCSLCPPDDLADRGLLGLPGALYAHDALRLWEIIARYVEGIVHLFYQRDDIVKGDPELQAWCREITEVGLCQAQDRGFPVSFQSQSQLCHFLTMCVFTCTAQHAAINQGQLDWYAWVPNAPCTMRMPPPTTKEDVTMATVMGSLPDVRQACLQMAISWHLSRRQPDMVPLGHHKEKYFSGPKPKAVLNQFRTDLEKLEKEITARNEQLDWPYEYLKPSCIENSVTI
Assay: Inhibition of 12-lipoxygenase in homogenates of human thrombocytes
Format: biochemical
Settings: arachidonic acid 40 μM, indomethacin 10 μM, 25° C., read-out: IC50-value of the inhibitory action on 12-Lipoxygenase
QUANTITY_MEASURED: IC50

>>> result("CC(=O)N(O)Cc1ccc(C(O)C#Cc2ccccc2)cc1 (racemic)")
"1 µM"

###

Tested on: Leukotriene-synthesis
Assay: Inhibition of Leukotriene-synthesis Induced by FMLP/merthiolate of Human Polymorphonuclear Leukocytes
Type: cell-based
Details: Leukocyte, 5 minutes preincubation at 37° C., centrifuged and resuspended in HBSS before merthiolate (40 μM) and FMLP (10^-7 M), read-out: IC50-value of the reversible inhibitory action
QUANTITY_MEASURED: IC50 (µM)

>>> result_number("CC(=O)N(O)Cc1ccc(C(O)C#Cc2ccccc2)cc1 (racemic) [Example 1]")
2

###

Molecular target: 5-lipoxygenase (Rattus norvegicus, UniProt P12527)
Construct: endogenous in cells; host or cells: RBL-1 cells (rat basophilic leukemia)
Assay: Inhibition of 5-lipoxygenase in RBL-1-cells
Format: cell-based
Settings: 20 μM [14C]-arachidonic acid, 20 μM calcium ionophore A 23 187, 10 minutes
pIC50: −log10 of the molar value.
QUANTITY_MEASURED: pIC50

>>> result_number("CC(=O)N(O)Cc1ccc(C(O)C#Cc2cccc(Cl)c2)cc1 (stereo not shown)")
5.40
>>> result_number("CC(=O)N(O)Cc1ccc(C(O)C#Cc2cccs2)cc1 (stereo not shown)")
5.52
>>> result_number("CC(=O)OC(C#Cc1ccccc1)c1ccc(CN(O)C(C)=O)cc1 (stereo not shown)")
5.40
>>> result_number("NC(=O)N(O)Cc1cccc(C(O)C#Cc2ccccc2)c1 (stereo not shown)")
5.40
>>> result_number("CCOC(C#Cc1cccs1)c1ccc(CN(O)C(N)=O)cc1 (stereo not shown)")
5.52
>>> result_number("NC(=O)N(O)Cc1ccc(C(O)C#Cc2ccc(F)cc2)cc1 (racemic)")
5.52
>>> result_number("NC(=O)N(O)Cc1ccc(C(O)C#Cc2ccc(Cl)cc2)cc1 (stereo not shown)")
5.52
>>> result_number("COc1cccc(C#CC(O)c2ccc(CN(O)C(C)=O)cc2)c1 (stereo not shown)")
5.52
>>> result_number("NC(=O)N(O)Cc1ccc(C(O)C#Cc2ccsc2)cc1 (stereo not shown)")
5.40
>>> result_number("NC(=O)N(O)Cc1ccc(C(O)C#Cc2ccccc2Cl)cc1 (stereo not shown)")
5.40

###

Test system: 5-lipoxygenase
Experiment: Inhibition of 5-lipoxygenase in Rat Blood After Oral Administration (ex vivo iLTB4-formation)
Settings: 21.5 mg/kg oral, male Wistar rats, one hour after administration
Cut-off 80% on Inhibition [%] of ex vivo iLTB4-formation, inclusive. At or above means true (1); below means false (0).

>>> assigned_label("CC(=O)N(O)Cc1ccc(C(O)C#Cc2cccc(Cl)c2)cc1 (centres unmarked)")
"false (0)"
>>> assigned_label("CC(=O)N(O)Cc1ccc(C(O)C#Cc2ccccc2)cc1 (racemic)")
"true (1)"
>>> assigned_label("CC(=O)N(O)Cc1ccc(C(O)C#Cc2ccsc2)cc1 (centres unmarked)")
"false (0)"
>>> assigned_label("NC(=O)N(O)Cc1ccc(C(O)C#Cc2ccccc2)cc1 (centres unmarked)")
"false (0)"
>>> assigned_label("CC(=O)N(O)Cc1ccc(C(O)C#Cc2cccc3ccccc23)cc1 (centres unmarked)")
"false (0)"

###

Listed here are compounds together with their documented pIC50.
Biological target: 5-lipoxygenase (Rattus norvegicus)
Construct: endogenous in cells; host or cells: RBL-1 cells (rat basophilic leukemia)
Test: Inhibition of Cell-free 5-lipoxygenase from RBL-1-cells (polarographic, 10,000 × g supernatant)
Type: biochemical
Details: 10,000 × g supernatant of homogenized RBL-1-cells; arachidonic acid 75 μM; 35° C.; calculated IC50
pIC50: −log10 of the molar value.
QUANTITY_MEASURED: pIC50

>>> result_number("NC(=O)N(O)Cc1ccc(C(O)C#Cc2ccc(F)cc2)cc1 (racemic)")
5.52
>>> result_number("COc1cccc(C#CC(O)c2ccc(CN(O)C(C)=O)cc2)c1 (stereo not drawn)")
5.52
>>> result_number("CC(=O)N(O)Cc1cccc(C(O)C#Cc2ccsc2)c1 (stereo not drawn)")
5.15

###

Biological target: 5-lipoxygenase (Rattus norvegicus)
Construct: endogenous in cells; host or cells: RBL-1 cells (rat basophilic leukemia)
Assay: Inhibition of 5-lipoxygenase in RBL-1-cells
Assay type: cell-based
Settings: 20 μM [14C]-arachidonic acid, 20 μM calcium ionophore A 23 187, 10 minutes
QUANTITY_MEASURED: IC50 (µM)

>>> result_number("COc1cccc(C#CC(O)c2ccc(CN(O)C(N)=O)cc2)c1 (stereo not drawn)")
4
>>> result_number("CC(=O)N(O)Cc1ccc(C(O)C#Cc2ccccc2)cc1 (racemic) [Example 1]")
5
>>> result_number("CC(=O)N(O)Cc1ccc(C(O)C#Cc2ccc(Cl)cc2)cc1 (stereo not drawn)")
8
>>> result_number("CC(=O)N(O)Cc1ccc(C(O)C#Cc2ccccc2)cc1 (single isomer, unassigned; (+)) [Example 2]")
4
>>> result_number("CC(=O)N(O)Cc1ccc(C(O)C#Cc2cccc3ccccc23)cc1 (stereo not drawn)")
3
>>> result_number("CC(=O)N(O)Cc1cccc(C(O)C#Cc2ccccc2)c1 (stereo not drawn)")
3
>>> result_number("CCOC(C#Cc1ccccc1)c1ccc(CN(O)C(C)=O)cc1 (stereo not drawn)")
4
>>> result_number("CC(=O)N(O)Cc1ccc(C(O)C#Cc2ccccc2)cc1 (single isomer, unassigned; (-)) [Example 3]")
5
>>> result_number("CC(=O)N(O)Cc1ccc(C(O)C#Cc2ccccc2Cl)cc1 (stereo not drawn)")
4

###

Molecular target: 5-lipoxygenase (Rattus norvegicus, UniProt P12527)
Construct: endogenous in cells; host or cells: RBL-1 cells (rat basophilic leukemia)
Sequence (P12527 1-673): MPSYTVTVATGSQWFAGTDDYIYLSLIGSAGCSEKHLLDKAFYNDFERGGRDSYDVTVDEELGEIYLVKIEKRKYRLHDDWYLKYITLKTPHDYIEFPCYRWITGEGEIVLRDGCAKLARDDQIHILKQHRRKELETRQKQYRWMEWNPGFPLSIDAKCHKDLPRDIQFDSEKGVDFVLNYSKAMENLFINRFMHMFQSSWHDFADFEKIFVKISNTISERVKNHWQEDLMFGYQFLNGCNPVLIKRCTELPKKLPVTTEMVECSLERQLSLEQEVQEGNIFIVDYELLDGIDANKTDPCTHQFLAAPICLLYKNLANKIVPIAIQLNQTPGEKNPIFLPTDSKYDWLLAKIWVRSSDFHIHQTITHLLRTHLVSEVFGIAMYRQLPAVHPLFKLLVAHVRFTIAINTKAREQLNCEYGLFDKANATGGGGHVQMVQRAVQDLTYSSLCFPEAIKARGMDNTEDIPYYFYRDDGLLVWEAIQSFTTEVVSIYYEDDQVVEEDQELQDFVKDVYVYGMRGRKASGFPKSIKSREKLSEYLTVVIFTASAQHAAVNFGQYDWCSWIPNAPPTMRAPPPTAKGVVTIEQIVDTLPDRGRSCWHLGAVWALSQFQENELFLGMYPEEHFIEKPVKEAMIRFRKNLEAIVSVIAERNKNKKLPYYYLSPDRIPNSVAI
Test: Inhibition of Cell-free 5-lipoxygenase from RBL-1-cells (polarographic, 10,000 × g supernatant)
Type: biochemical
Conditions: 10,000 × g supernatant of homogenized RBL-1-cells; arachidonic acid 75 μM; 35° C.; calculated IC50
QUANTITY_MEASURED: IC50 (µM)

>>> result_number("CC(=O)OC(C#Cc1ccccc1)c1ccc(CN(O)C(C)=O)cc1 (stereo not shown)")
9
>>> result_number("CCOC(C#Cc1ccccc1)c1ccc(CN(O)C(C)=O)cc1 (stereo not shown)")
5
>>> result_number("CC(=O)N(O)Cc1ccc(C(O)C#Cc2cccc3ccccc23)cc1 (stereo not shown)")
7
>>> result_number("NC(=O)N(O)Cc1ccc(C(O)C#Cc2ccccc2Cl)cc1 (stereo not shown)")
8
>>> result_number("CCOC(C#Cc1cccs1)c1ccc(CN(O)C(N)=O)cc1 (stereo not shown)")
5
>>> result_number("CCOC(C#Cc1ccc(OC)c(OC)c1)c1ccc(CN(O)C(C)=O)cc1 (stereo not shown)")
6
>>> result_number("CC(=O)N(O)Cc1ccc(C(O)C#Cc2ccccc2)cc1 (racemic)")
5
>>> result_number("CC(=O)N(O)C(C)c1ccc(C(O)C#Cc2ccccc2)cc1 (stereo not shown)")
8
>>> result_number("CC(=O)N(O)Cc1ccc(C(O)C#Cc2cccs2)cc1 (stereo not shown)")
6
>>> result_number("NC(=O)N(O)Cc1ccc(C(O)C#Cc2ccccc2)cc1 (stereo not shown)")
8
